Data origin, for the record: ChEMBL document CHEMBL3727343

target: Olfactory receptor 5K1 (Homo sapiens); test: Antagonist activity at human OR5K1 expressed in HEK293 cells assessed as inhibition of 2,6-dimethylpyrazine-induced response at 100 uM by luciferase reporter gene assay; format: functional, cell-based
readout name: inhibition

Answer for every listed entry: what is its inhibition? The entries follow.
1. CC(=O)c1cc(C(C)(C)C)cc2c1CCC2(C)C
2. CC(C=O)Cc1ccc2c(c1)OCO2 (centres undefined)

stdout:
["> 40%", "> 40%"]

Answer for every listed entry: what is its inhibition? The entries follow.
1. C/C=C/c1ccc(OCc2ccccc2)c(OC)c1
2. CC12CCC(C3(CCCC3)C1=O)C2(C)C (centres undefined)
3. CCCCCC1=C(C)CCC1=O
4. CC(=O)O[C@]1(C)CC[C@H]2C(C)(C)[C@@H]3C[C@@]21CC[C@H]3C

stdout:
1: > 50%; 2: > 50%; 3: > 40%; 4: > 50%

Answer for every listed entry: what is its inhibition? The entries follow.
1. CC1=CC(O)CC(C)C2CC(=C(C)C)CC12 (centres undefined)
2. CC1C/C=C/CCCCCCCCCC(=O)C1 (centres undefined)
3. C=CCCC(=O)C1=CCCC(C)(C)C1
4. C[C@@H]1CCCCCCCCCCCCC(=O)C1
5. CC1(C)CCCC2(C)C1CCC1(C)OCCC12 (centres undefined)
6. CC(C=O)c1ccccc1 (centres undefined)
7. CC(C)=CCCC(C)CC=O (centres undefined)
8. Cc1ccc(C(C)C)c(O)c1

stdout:
["> 75%", "> 50%", "> 40%", "> 50%", "> 50%", "> 50%", "> 50%", "> 75%"]
